Ref: patent US20210188980A1

# IC50 annotations
Target: T1, human PD-1 expressed on cells (human, UniProt Q15116 25-288)
T1 construct: whole, on cells; also called CHO-K1/huPD-1; CHO-K1-hPD-1 cells
T1 sequence (Q15116 25-288): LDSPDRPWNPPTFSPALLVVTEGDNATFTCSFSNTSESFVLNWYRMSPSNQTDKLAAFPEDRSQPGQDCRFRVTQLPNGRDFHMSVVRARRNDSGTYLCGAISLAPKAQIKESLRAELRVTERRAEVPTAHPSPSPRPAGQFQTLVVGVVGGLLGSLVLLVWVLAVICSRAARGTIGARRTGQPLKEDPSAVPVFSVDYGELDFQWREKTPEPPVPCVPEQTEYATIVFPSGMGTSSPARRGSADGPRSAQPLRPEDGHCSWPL
Test: cell RBA FACS, CHO-K1-huPD1; competitor biotin-PD-L1/Fc
Description: All 15 humanized antibodies and the chimeric antibody (mAb709c) were characterized by binding ELISA and cell-based RBA. […] Signals were readout by FACS and curves were fitted by GraphPad software. […] The association and dissociation rate constants, k (M⁻¹ s⁻¹) and koff(s⁻¹), respectively, were determined by making kinetic binding measurements at five different concentrations of human PD-1-His protein at a continuous flow rate of 30 μl/min. […]
METRIC_NAME: IC50 (nM)

- BINDER: "HumAb709-4 (antibody, human IgG1, kappa, L234A L235A, V domains shown, humanized mAb709) VH: EVQLVESGGGLVQPGGSLRLSCAASGFTFSFYTMSWVRQAPGKGLEWVATISGGGRDTYYPDSVKGRFTISRDNAKNSLYLQMNSLRAEDTAVYYCARQGGNYLFAYWGQGTLVTVSS VL: DIQMTQSPSSLSASVGDRVTITCKASQDVNTVVAWYQQKPGKAPKLLISWASTRHTGVPSRFSGSGSGTDYTLTISSLQPEDFATYYCQQHYTTPYTFGGGTKVEIKR"
  RESULT_VALUE: 0.78
- BINDER: "HumAb709-5 (antibody, human IgG1, kappa, L234A L235A, V domains shown, humanized mAb709) VH: EVQLVESGGGLVQPGGSLRLSCAASGFTFSFYTMSWVRQAPGKGLEWVATISGGGRDTYYPDSVKGRFTISRDNAKNSLYLQMNSLRAEDTAVYYCAGQGGNYLFAYWGQGTLVTVSS VL: DIQMTQSPSSLSASVGDRVTITCKASQDVNTVVAWYQQKPGKAPKLLISWASTRHTGVPSRFSGSGSGTDYTLTISSLQPEDFATYYCQQHYTTPYTFGGGTKVEIKR"
  RESULT_VALUE: 0.67
- BINDER: "HumAb709-9 (antibody, human IgG1, kappa, L234A L235A, V domains shown, humanized mAb709) VH: EVQLVESGGGLVQPGGSLRLSCAASGFTFSFYTMSWVRQAPGKRLEWVATISGGGRDTYYPDSVKGRFTISRDNAKNSLYLQMNSLRAEDTAVYYCAGQGGNYLFAYWGQGTLVTVSS VL: DIVMTQSPSSLSASVGDRVTITCKASQDVNTVVAWYQQKPGKAPKVLISWASTRHTGVPSRFSGSGSGTDYTLTISSLQPEDFATYYCQQHYTTPYTFGGGTKVEIKR"
  RESULT_VALUE: 1.04
